assay-protocol: chemical genetic growth profiling, strain panel (AID 1159580);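 further: tested at 20 µM; growth read once vehicle control cultures reached saturation at 30 °C; 1 = growth at the plate median or of vehicle wells; lower values mean less growth of the strain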
condition-details: S. cerevisiae deletion strains, growth OD, locus YMR231W, strain pep5, stronger effect = lower value
About 2,000 (36%) of roughly 5,500 compounds were called active. Inconclusive results (about 18%) are left out. The list shows a part of the results.
property: normalized growth
Numbers only.

Sample answers from the record:
{"compound": "CC1=C(C(C)O)C2=NC1C=c1[nH]c(c(C)c1C(C)O)=Cc1[nH]c(c(CCC(=O)O)c1C)C=c1[nH]c(c(C)c1CCC(=O)O)=C2 (centres undefined)", "reported": 0.98}
{"compound": "COc1cc(O)c(C(=O)/C=C/c2ccccc2)c(OC)c1", "reported": 0.967}
{"compound": "OCCN1C[C@@H](O)[C@@H](O)C(O)C1CO (some centres undefined)", "reported": 1}
{"compound": "CCN(CC)CCCC(C)Nc1c2ccc(Cl)cc2nc2ccc(OC)cc12 (centres undefined)", "reported": 1.02}
{"compound": "CS(=O)(=O)c1ccc(C2=C(c3ccccc3)C(=O)OC2)cc1", "reported": 0.992}

Hello, I would appreciate it if you could give normalized growth for each entry below.
1. CCC(=O)O[C@H]1[C@H](O[C@@H]2[C@@H](C)[C@H](O[C@H]3C[C@@](C)(OC)[C@@H](O)[C@H](C)O3)[C@@H](C)C(=O)O[C@H](CC)[C@@](C)(O)[C@H](O)[C@@H](C)C(=O)[C@H](C)C[C@@]2(C)O)O[C@H](C)C[C@@H]1N(C)C
2. COc1cc2c(cc1OC)C(=O)OC2
3. CC(NCCc1ccc(O)cc1)C(O)c1ccc(O)cc1 (centres undefined)
4. CCN(CC)CCCC(C)Nc1ccnc2cc(Cl)ccc12 (centres undefined)
5. CNC(C)[C@H](O)c1ccccc1 (some centres undefined)
6. COc1cc(NS(=O)(=O)c2ccc(N)cc2)nc(OC)n1

Solution:
1. 0.984
2. 0.99
3. 0.997
4. 1.02
5. 1
6. 0.982

* * *

Provide the reported normalized growth of each item.
assay-protocol: chemical genetic growth profiling, strain panel (AID 1159580)
condition-details: S. cerevisiae deletion strains, growth OD, locus YLR221C, strain rsa3, stronger effect = lower value
In all, about 5,500 compounds went through this assay and about 2,000 (36%) were called active. Roughly 18% stayed inconclusive and do not appear here. This is one part of the list.
One number for each entry.

{"molecule": "COc1ccc2c(c1OC)C(=O)O[C@H]2[C@H]1c2cc3c(cc2CCN1C)OCO3", "normalized growth": 0.998}

Hello, I would appreciate it if you could give normalized growth for each entry below.
1. CC(=O)N[C@@H](CC(C)C)C(=O)O
2. CN1CCC(=C2c3ccccc3CCc3sccc32)CC1
3. O=C(O)C1(O)C[C@@H](O)C(O)[C@H](O)C1 (stereo partly specified)

Solution:
1: 1; 2: 0.997; 3: 0.987

Hello, I would appreciate it if you could give normalized growth for each entry below.
1. COc1ccc2c(c1OC)C(=O)O[C@@H]2[C@H]1c2cc3c(cc2CCN1C)OCO3
2. OCCN1C[C@@H](O)[C@@H](O)C(O)C1CO (stereo partly specified)

Solution:
1. 0.983
2. 1.01

* * *

assay-protocol: chemical genetic growth profiling, strain panel (AID 1159580)
condition-details: S. cerevisiae deletion strains, growth OD, locus YPL031C, strain PHO85
Out of some 5,500 compounds screened, about 2,000 (36%) were called active. Inconclusive results (about 18%) are left out. Cut-off read from the data, not from the text of the source: active = normalized growth mostly below about 0.91 (no sharp cut-off); inconclusive = no clear call, values can overlap the other calls; inactive = mostly above about 0.92. The list shows a part of the results.
Give your call using only these classes: active, inactive

These recorded examples may help you get a feel for the data.
{"compound": "Cc1ccc(/C=C2\\CSc3ccc(F)cc3C2=O)cc1", "assigned-class": "inactive"}
{"compound": "Cc1ccc(OCC2SCCN2C(=O)c2ccc(C(F)(F)F)cc2)c([N+](=O)[O-])c1 (configuration not stated)", "assigned-class": "inactive"}
{"compound": "O=C1C(=O)N(CN2CCc3c([nH]c4ccccc34)C2C(F)(F)F)c2ccc(F)cc21 (configuration not stated)", "assigned-class": "inactive"}
{"compound": "CCOC(=O)CSC(=S)NCc1ccc(C)cc1", "assigned-class": "inactive"}
{"compound": "O=S(=O)(Nc1cccc(CCc2ccccn2)c1)c1cc(Cl)c(Cl)cc1Cl", "assigned-class": "inactive"}

Here's the next entry for you.
Problem: Returns: the outcome recorded for OC1(C(F)(F)F)CC(C23CC4CC(CC(C4)C2)C3)=NN1 (configuration not stated) in this assay.
Solution: active

* * *

Provide the reported normalized growth of each item.
assay-protocol: chemical genetic growth profiling, strain panel (AID 1159580)
condition-details: S. cerevisiae deletion strains, growth OD, locus YOR069W, strain VPS5, stronger effect = lower value
The campaign covered roughly 5,500 compounds. About 2,000 (36%) were called active. Inconclusive results (about 18%) are left out. Some of the results follow.
Give bare numbers.

Sample answers from the record:
{"compound": "COc1ccc2c(C)cc(=O)oc2c1", "normalized growth": 1.01}
{"compound": "O=C(O)c1cc2ccccc2c(Cc2c(O)c(C(=O)O)cc3ccccc23)c1O", "normalized growth": 0.999}
{"compound": "N=c1ccn2c(n1)O[C@@H]1C2O[C@H](CO)[C@H]1O (stereo partly specified)", "normalized growth": 1.01}
{"compound": "COc1ccc2c(c1)OCc1c-2oc2cc(OC)ccc12", "normalized growth": 0.956}
{"compound": "O=C(O)c1c2ccccc2cc2ccccc12", "normalized growth": 1.01}

Problem: Supply measured normalized growth of `O=C1C=CC(=C(c2ccc(O)cc2)c2ccc(O)cc2)C=C1` in your reply.
Solution: 1.02

* * *

assay-protocol: chemical genetic growth profiling, strain panel (AID 1159580);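 further: tested at 20 µM; growth read once vehicle control cultures reached saturation at 30 °C; 1 = growth at the plate median or of vehicle wells; lower values mean less growth of the strain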
condition-details: S. cerevisiae deletion strains, growth OD, locus YMR125W, strain sto1, stronger effect = lower value
Screen size: about 5,500 compounds; about 2,000 (36%) were called active. Inconclusive results (about 18%) are left out. This is one part of the list.
property: normalized growth
Numbers only.

{"compound": "COc1cc(O)c(C(=O)/C=C/c2ccc(O)c(OC)c2)c(OC)c1", "normalized growth": 0.899}
{"compound": "C=C(C)C1CNC(C(=O)O)C1CC(=O)O (stereo not drawn)", "normalized growth": 0.97}
{"compound": "NCCSSCCN", "normalized growth": 1}
{"compound": "CCCCNc1cc(C(=O)O)cc(S(N)(=O)=O)c1Oc1ccccc1", "normalized growth": 1.01}
{"compound": "COc1cc(O)c(C(=O)/C=C/c2ccccc2)c(OC)c1", "normalized growth": 0.893}

Hello, I would appreciate it if you could give normalized growth for each entry below.
1. CC(N)C(=O)OC(C)(C)Cc1ccc(Cl)cc1 (stereo not drawn)
2. CCOC(=O)C(C)(C)Oc1ccc(Cl)cc1
3. CN1CCCN=C1COC(=O)C(O)(c1ccccc1)C1CCCCC1 (stereo not drawn)
4. CC(C)OC(=O)C(C)(C)Oc1ccc(C(=O)c2ccc(Cl)cc2)cc1
5. COc1cc(/C=C/C(=O)/C=C(O)/C=C/c2ccc(O)c(OC)c2)ccc1O
6. CC(N)CCCC(C)(C)O (stereo not drawn)

Solution:
1.01
0.963
0.992
0.942
0.16
0.957

Hello, I would appreciate it if you could give normalized growth for each entry below.
1. CN[C@@H](C)[C@@H](O)c1ccccc1
2. CCN(CC)CCNC(=O)c1cc(Br)c(N)cc1OC

Solution:
1. 0.985
2. 0.975

* * *

assay-protocol: chemical genetic growth profiling, strain panel (AID 1159580);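 further: tested at 20 µM; growth read once vehicle control cultures reached saturation at 30 °C; 1 = growth at the plate median or of vehicle wells; lower values mean less growth of the strain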
condition-details: S. cerevisiae deletion strains, growth OD, locus YLR262C, strain YPT6, stronger effect = lower value
Out of some 5,500 compounds screened, about 2,000 (36%) were called active. About 18% were inconclusive and are not listed. This is one part of the list.
property: normalized growth
Answers are plain numbers.

Sample answers from the record:
{"molecule": "CN(C)c1ccc(C(=O)NN)cc1", "normalized growth": 1.15}
{"molecule": "O=C1C=CC(=C(c2ccc(O)cc2)c2ccc(O)cc2)C=C1", "normalized growth": 1.02}
{"molecule": "COc1cc2c(cc1OC)C1C(=O)c3c(OC)cc4c(c3OC1CO2)CCC(C)(C)O4 (stereo not given)", "normalized growth": 0.994}
{"molecule": "CN(C)c1ccc(C(=C2C=CC(=[N+](C)C)C=C2)c2ccc(N(C)C)cc2)cc1", "normalized growth": 0.753}

Problem: Supply measured normalized growth of `Cc1c(O)c(C(=O)CC(C)C)c2oc3c(C(=O)CC(C)C)c(O)c(C)c(O)c3c2c1O` in your reply.
Solution: 0.811

* * *

assay-protocol: chemical genetic growth profiling, strain panel (AID 1159580);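 further: tested at 20 µM; growth read once vehicle control cultures reached saturation at 30 °C; 1 = growth at the plate median or of vehicle wells; lower values mean less growth of the strain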
condition-details: S. cerevisiae deletion strains, growth OD, locus YOR184W, strain ser1
Out of some 5,500 compounds screened, about 2,000 (36%) were called active. Inconclusive results (about 18%) are left out. Cut-off read from the data, not from the text of the source: active = normalized growth mostly below about 0.91 (no sharp cut-off); inconclusive = no clear call, values can overlap the other calls; inactive = mostly above about 0.92. The list shows a part of the results.
Give your call using only these classes: active, inactive

These recorded examples may help you get a feel for the data.
{"compound": "COc1ccc2c(c1OC)C(=O)O[C@H]2[C@H]1c2cc3c(cc2CCN1C)OCO3", "assigned-class": "inactive"}
{"compound": "CCC(C)C(=O)O[C@H]1[C@H](O)C2C(CN3CC(C)CCC3[C@@]2(C)O)C2C[C@]34O[C@]5(O)C(OC(=O)C(C)(O)C(C)O)CC[C@@]3(C)C5C(OC(C)=O)[C@@H](OC(C)=O)C4[C@@]21O (some centres undefined)", "assigned-class": "inactive"}
{"compound": "Cc1cc(O)c(C=O)c(O)c1C(=O)O", "assigned-class": "inactive"}
{"compound": "CCOC(=O)C1(O)Oc2cc(OC)cc(OC)c2C(=O)C1c1ccccc1 (centres undefined)", "assigned-class": "inactive"}

Here's the next entry for you.
Problem: Returns: the outcome recorded for `CCOC(=O)CCC(=O)O[C@H]1[C@H](O[C@@H]2[C@@H](C)[C@H](O[C@H]3C[C@@](C)(OC)[C@@H](O)[C@H](C)O3)[C@@H](C)C(=O)O[C@H](CC)[C@@](C)(O)[C@H](O)[C@@H](C)C(=O)[C@H](C)C[C@@]2(C)O)O[C@H](C)C[C@@H]1N(C)C` in this assay.
Solution: inactive
